Each entry below lists one item and its recorded pIC50 value.
# target_or_test_system: GST-tagged KRAS-G12V (2-169) (Homo sapiens, UniProt P01116, G12V)
# Sequence (P01116 2-169 isoform P01116-2 G12V): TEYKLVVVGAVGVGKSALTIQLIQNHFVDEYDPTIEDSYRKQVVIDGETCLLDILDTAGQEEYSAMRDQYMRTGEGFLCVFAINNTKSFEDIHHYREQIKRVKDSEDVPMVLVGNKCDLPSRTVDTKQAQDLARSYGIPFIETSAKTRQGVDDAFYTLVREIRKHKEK
# experimental_details: Nucleotide exchange assay (NEA), SOS-mediated, HTRF, KRAS G12V
# measurement_setup: Table 4; IC50 extracted at 90 min; 80 nM SOS
pIC50: −log10 of the molar value.

Example entries begin here.
>  <molecule>
CCN(c1nc(OC[C@@]23CCCN2C[C@H](F)C3)nc(N2CC3(C2)SCc2sc(N)c(C#N)c23)n1)C(C)c1cccnc1N (stereo partly drawn)

>  <measure>
pIC50

>  <value_reported>
> 8.00

$$$$
>  <molecule>
CC(c1nccnc1N)N(C)c1nc(OC[C@@]23CCCN2C[C@H](F)C3)nc(N2CC3(CCc4sc(N)c(C#N)c43)C2)n1 (stereo partly drawn) [Compound 102]

>  <measure>
pIC50

>  <value_reported>
> 8.00

$$$$
>  <molecule>
CC(c1ccnnc1N)N(C)c1nc(OC[C@@]23CCCN2C[C@H](F)C3)nc(N2CC3(CCc4sc(N)c(C#N)c43)C2)n1 (stereo partly drawn)

>  <measure>
pIC50

>  <value_reported>
> 8.00

$$$$

// next entry
INPUT: Consider the molecule CCN(c1nc(OC[C@@H]2CC[C@@H]3CN(C)CCN32)nc(N2CC3(C2)SCc2sc(N)c(C#N)c23)n1)[C@H](C)c1cccnc1N (mixture of isomers) and give its measured pIC50.
OUTPUT: > 8.00

###

# target_or_test_system: GST-tagged KRAS-G12D (2-169) (Homo sapiens, UniProt P01116, G12D)
# Sequence (P01116 2-169 isoform P01116-2 G12D): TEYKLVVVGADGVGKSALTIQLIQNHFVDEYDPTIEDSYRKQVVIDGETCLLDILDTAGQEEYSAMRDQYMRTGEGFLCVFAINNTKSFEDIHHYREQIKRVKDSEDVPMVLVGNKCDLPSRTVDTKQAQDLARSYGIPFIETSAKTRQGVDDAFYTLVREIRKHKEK
# experimental_details: Nucleotide exchange assay (NEA), SOS-mediated, HTRF, KRAS G12D
# Type: biochemical
# measurement_setup: Table 4; IC50 extracted at 30 min; 20 nM SOScat; read-out: NEA G12D IC50
measure: IC50

Example entries begin here.
>  <compound>
N#CCN(c1nc(OC[C@@]23CCCN2C[C@H](F)C3)nc(N2CC3(C2)SCc2sc(N)c(C#N)c23)n1)C1(C#N)CC1 [Compound 251]

>  <target_or_test_system>
GST-tagged KRAS-G12D (2-169) (Homo sapiens, UniProt P01116, G12D)

>  <value_reported>
< 10 nM

$$$$
>  <compound>
C[C@@]1(O)CCCN(c2nc(OC[C@@]34CCCN3C[C@H](F)C4)nc(N3CCC4(CCc5sc(N)c(C#N)c54)C3)n2)C1 (stereo partly drawn) [Compound 11]

>  <target_or_test_system>
GST-tagged KRAS-G12D (2-169) (Homo sapiens, UniProt P01116, G12D)

>  <value_reported>
100 to 1000 nM

$$$$
>  <compound>
C[C@@]1(O)CCCN(c2nc(OC[C@@]34CCCN3C[C@H](F)C4)nc(N3CC4(C3)c3c(sc(N)c3C#N)CC3CC34)n2)C1 (stereo partly drawn) [Compound 51]

>  <target_or_test_system>
GST-tagged KRAS-G12D (2-169) (Homo sapiens, UniProt P01116, G12D)

>  <value_reported>
10 to 100 nM

$$$$
>  <compound>
CC(c1nccnc1N)N(C)c1nc(OC[C@@]23CCCN2C[C@H](F)C3)nc(N2CC3(CCc4sc(N)c(C#N)c43)C2)n1 (single isomer, unassigned) [Compound 116B]

>  <target_or_test_system>
GST-tagged KRAS-G12D (2-169) (Homo sapiens, UniProt P01116, G12D)

>  <value_reported>
100 to 1000 nM

$$$$
>  <compound>
C[C@H](c1cccnc1N)N(C)c1nc(OC[C@@]23CCCN2C[C@H](F)C3)nc(N2CC(C)(c3csc(N)c3C#N)C2)n1 [Compound 172]

>  <target_or_test_system>
GST-tagged KRAS-G12D (2-169) (Homo sapiens, UniProt P01116, G12D)

>  <value_reported>
< 10 nM

$$$$

INPUT: Consider the compound N#Cc1c(N)sc2c1C1(CC2)CN(c2nc(OC[C@@]34CCCN3C[C@H](F)C4)nc(N(CCO)Cc3cc(F)cnc3N)n2)C1 [Compound 133] and give its measured IC50.
OUTPUT: < 10 nM

The reported numbers originate from patent US12421254B2.
